# TGT: T1, human GPC3-His protein (human, UniProt P51654 25-559)
# T1 construct: also called human GPC3 protein; not shown: His tag
# TEST DETAILS: SPR, antibody captured on Protein A chip, human GPC3-His analyte;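 note: measured at 25 °C flow cell, human GPC3-His injected at five concentrations up to 200 nM, 240 s association, up to 600 s dissociation, double-referenced, fitted to Langmuir 1:1 model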
Consider the following binders; for each one, report its kon.
Write the quantity with the unit trailing the number.

stdin: Any idea what its kon is? The binder is F2.92.1 (antibody, human IgG1, kappa, V domains shown, Human-murine chimeric antibody) VH: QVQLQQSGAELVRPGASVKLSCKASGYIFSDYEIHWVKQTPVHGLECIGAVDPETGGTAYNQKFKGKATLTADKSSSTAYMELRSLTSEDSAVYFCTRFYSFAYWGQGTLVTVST VL: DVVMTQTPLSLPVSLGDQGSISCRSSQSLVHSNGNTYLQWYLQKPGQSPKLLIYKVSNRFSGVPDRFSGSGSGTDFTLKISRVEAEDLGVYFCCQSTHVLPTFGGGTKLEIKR
stdout: 404000 M⁻¹ s⁻¹

stdin: Give the measured kon of F4.18.4 (antibody, human IgG1, kappa, V domains shown, Human-murine chimeric antibody) VH: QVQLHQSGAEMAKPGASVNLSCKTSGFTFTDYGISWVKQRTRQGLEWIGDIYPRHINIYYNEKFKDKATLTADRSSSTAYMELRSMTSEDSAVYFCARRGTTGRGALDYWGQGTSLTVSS VL: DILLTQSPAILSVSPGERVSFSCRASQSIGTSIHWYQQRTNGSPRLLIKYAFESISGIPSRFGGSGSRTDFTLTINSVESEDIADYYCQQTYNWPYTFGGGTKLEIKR .
stdout: 87100 M⁻¹ s⁻¹

stdin: Name the recorded kon for F1.136.7 (antibody, human IgG1, kappa, V domains shown, Human-murine chimeric antibody) VH: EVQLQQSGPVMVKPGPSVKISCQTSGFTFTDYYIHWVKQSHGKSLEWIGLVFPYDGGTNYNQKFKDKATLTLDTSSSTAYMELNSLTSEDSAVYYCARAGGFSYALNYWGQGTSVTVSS VL: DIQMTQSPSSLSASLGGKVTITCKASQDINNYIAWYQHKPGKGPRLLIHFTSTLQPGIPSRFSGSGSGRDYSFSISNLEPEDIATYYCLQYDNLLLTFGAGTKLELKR .
stdout: 84100 M⁻¹ s⁻¹
